Measured viability, T/C, listed per entry.
test system: 889142-216-R-J1-PDC complex spheroid viability; test: Anticancer human tumor 889142-216-R-J1-PDC patient-derived bladder carcinoma cell line growth inhibition [POLQ]; details: second compound 0.0316 µM; first compound 1 µM; hits give low values;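 also: spheroids exposed to compounds for seven days; 100% = DMSO vehicle control viability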
Please respond with the number in % and leave the unit unwritten.

Reference set, count: 4
{"Compound": "COc1cccc(OCCCN)c1-c1cc(Nc2cnc(C#N)cn2)n[nH]1 + Nc1ccc(C#CCN(C(=O)Cc2ncc(C(F)(F)F)cc2C(F)(F)F)c2ccc(F)cc2)nn1", "Display Unit": "%", "viability, T/C": 49}
{"Compound": "COc1cc2cc(C(=O)CCC(=O)O)sc2cc1OC + COC1C(OC(N)=O)C(O)C(Oc2ccc3c(O)c(NC(=O)c4ccc(O)c(CC=C(C)C)c4)c(=O)oc3c2C)OC1(C)C", "Display Unit": "%", "viability, T/C": 114}
{"Compound": "COc1cccc2c1C(=O)c1c(O)c3c(c(O)c1C2=O)CC(O)(C(=O)CO)CC3OC1CC(N)C(O)C(C)O1 (stereo unspecified) + Nc1ccc(C#CCN(C(=O)Cc2ncc(C(F)(F)F)cc2C(F)(F)F)c2ccc(F)cc2)nn1", "Display Unit": "%", "viability, T/C": 6.13}
{"Compound": "COc1cc(C2c3cc4c(cc3C(OC3OC5COC(C)OC5C(O)C3O)C3COC(=O)C23)OCO4)cc(OC)c1O (stereo unspecified) + Nc1ccc(C#CCN(C(=O)Cc2ncc(C(F)(F)F)cc2C(F)(F)F)c2ccc(F)cc2)nn1", "Display Unit": "%", "viability, T/C": 60.5}

Prompt: Item under review: CC1COCCN1c1cc(C2(O)CC3CCC(C2)O3)c2cnn(-c3ccn[nH]3)c2n1 (stereo unspecified) + Cc1cccc(N(C)C(=O)C2C(O)CCN2c2nc(C)cc(C(F)(F)F)c2C#N)c1 . Reported viability, T/C?
Response: 34.2

Prompt: Item under review: C=CC(=O)N1CCN(c2nc(=O)n(-c3c(C)ccnc3C(C)C)c3nc(-c4c(O)cccc4F)c(F)cc23)C(C)C1 (stereo unspecified) + Nc1ccc(C#CCN(C(=O)Cc2ncc(C(F)(F)F)cc2C(F)(F)F)c2ccc(F)cc2)nn1 . Reported viability, T/C?
Response: 121

Prompt: Item under review: CCc1c2c(nc3ccc(O)cc13)-c1cc3c(c(=O)n1C2)COC(=O)[C@]3(O)CC + Nc1ccc(C#CCN(C(=O)Cc2ncc(C(F)(F)F)cc2C(F)(F)F)c2ccc(F)cc2)nn1 . Reported viability, T/C?
Response: 9.02

Prompt: Item under review: COc1ccc([C@@H](O)c2cc(-c3ncnc4cc(N5CCOCC5)ccc34)c(F)cc2Cl)nn1 + Cc1cccc(N(C)C(=O)C2C(O)CCN2c2nc(C)cc(C(F)(F)F)c2C#N)c1 . Reported viability, T/C?
Response: 69.6

Prompt: Item under review: CNCc1ccc(-c2[nH]c3cc(F)cc4c3c2CCNC4=O)cc1 + COC1C(OC(N)=O)C(O)C(Oc2ccc3c(O)c(NC(=O)c4ccc(O)c(CC=C(C)C)c4)c(=O)oc3c2C)OC1(C)C . Reported viability, T/C?
Response: 105

Prompt: Item under review: CCCS(=O)(=O)Nc1ccc(F)c(C(=O)c2c[nH]c3ncc(-c4ccc(Cl)cc4)cc23)c1F + Cc1cccc(N(C)C(=O)C2C(O)CCN2c2nc(C)cc(C(F)(F)F)c2C#N)c1 . Reported viability, T/C?
Response: 105

Prompt: Item under review: O=C(Nc1ccc(O)c(NS(=O)(=O)c2ccc(F)cc2)c1)c1ccc(-c2ccccc2)cc1 + COC1C(OC(N)=O)C(O)C(Oc2ccc3c(O)c(NC(=O)c4ccc(O)c(CC=C(C)C)c4)c(=O)oc3c2C)OC1(C)C . Reported viability, T/C?
Response: 116
